# experimental_details: Particle size of the cefuroxime axetil particles (SEM images)
# Type: physicochemical
# recorded_conditions: amorphous particles from antisolvent precipitation
observed_property: average particle size

Task item: Please look up its average particle size: CO/N=C(\C(=O)N[C@@H]1C(=O)N2C(C(=O)OC(C)OC(C)=O)=C(COC(N)=O)CS[C@H]12)c1ccco1 (stereo partly drawn) [Example 10, cefuroxime axetil]
Reply: about 600 nm

Task item: Another compound: CO/N=C(\C(=O)N[C@@H]1C(=O)N2C(C(=O)OC(C)OC(C)=O)=C(COC(N)=O)CS[C@H]12)c1ccco1 (stereo partly drawn) [Example 2, cefuroxime axetil]
Reply: about 600 nm
